Tested on: MDA-MB-231 human breast cancer cells
testSummary: Membrane Invasion Culture System (MICS) chemo-invasion assay
Assay type: cell-based
assayContext: 1 ug/mL; 24 hours; + = increased invasiveness
Reported percent inhibition, MDA-MB-231 (Breast) is given for each of the following compounds.

Consider the reported percent inhibition, MDA-MB-231 (Breast) for these compounds:
CC1c2cccc(O)c2C(=O)C2=C(O)C3(O)C(=O)C(C(N)=O)=C(O)C([N+](C)(C)C)C3C(O)C21.[I-] (stereo not drawn)    20^B percent
CC1c2ccc(C(C)(C)C)c(O)c2C(=O)C2=C(O)C3(O)C(=O)C(C(N)=O)=C(O)C(N(C)C)C3C(O)C21 (stereo not drawn)    18^B percent

Suppose we examine the compound CC1c2c(N(NC(=O)OCc3ccccc3)C(=O)OCc3ccccc3)ccc(O)c2C(=O)C2=C(O)C3(O)C(=O)C(C(N)=O)=C(O)C(N(C)C)C3C(O)C21.Cl (stereo not drawn) ; what percent inhibition, MDA-MB-231 (Breast) value has been reported? +17%

====

testedSystem: Human recombinant MMP3 (Homo sapiens)
Sequence (P08254 100-477): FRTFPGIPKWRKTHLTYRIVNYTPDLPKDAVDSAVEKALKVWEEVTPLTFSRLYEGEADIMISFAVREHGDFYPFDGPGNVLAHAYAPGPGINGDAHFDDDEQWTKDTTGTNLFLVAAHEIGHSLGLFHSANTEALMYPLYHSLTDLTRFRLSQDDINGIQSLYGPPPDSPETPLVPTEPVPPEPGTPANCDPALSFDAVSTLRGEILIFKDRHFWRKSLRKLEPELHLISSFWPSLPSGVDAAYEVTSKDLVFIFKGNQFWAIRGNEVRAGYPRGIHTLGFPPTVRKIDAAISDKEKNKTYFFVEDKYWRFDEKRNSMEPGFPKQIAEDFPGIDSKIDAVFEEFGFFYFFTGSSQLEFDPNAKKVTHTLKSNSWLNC
testSummary: MMP3 (Stromelysin 1) inhibition, 14C casein release
assayContext: 37° C., 16 hours; read-out: MMP-3 inhibitory activity, IC50
Response field label takes yes when IC50 is strictly below 300 µM and no in all other cases.

Some entries whose results are on file:
CC(=O)Nc1cc(N)c(O)c2c1C(C)C1C(=C(O)C3(O)C(=O)C(C(N)=O)=C(O)C(N(C)C)C3C1O)C2=O (stereo not shown)    no
CC1c2c(NC3CCC3)ccc(O)c2C(=O)C2=C(O)C3(O)C(=O)C(C(N)=O)=C(O)C(N(C)C)C3C(O)C21 (stereo not shown)    yes
CC1c2ccc([N+]#N)c(O)c2C(=O)C2=C(O)C3(O)C(=O)C(C(N)=O)=C(O)CC3C(O)C21.O=S(=O)([O-])O (stereo not shown)    yes
CC1c2ccc([N+](=O)[O-])c(O)c2C(=O)C2=C(O)C3(O)C(=O)C(C(N)=O)=C(O)C(N(C)C)C3C(O)C21 (stereo not shown)    yes
CC(=O)Nc1cc([N+](=O)[O-])c(O)c2c1C(C)C1C(=C(O)C3(O)C(=O)C(C(N)=O)=C(O)C(N(C)C)C3C1O)C2=O (stereo not shown)    no

Quick check: does CC1c2c([N+]#N)ccc(O)c2C(=O)C2=C(O)C3(O)C(=O)C(C(N)=O)=C(O)C(N(C)C)C3C(O)C21 (stereo not shown) have IC50 under 300 µM? no

Confirm or reject: IC50 of CC1c2c([N+]#N)cc(C(C)(C)C)c(O)c2C(=O)C2=C(O)C3(O)C(=O)C(C(N)=O)=C(O)C(N(C)C)C3C(O)C21 (stereo not shown) lies strictly below 300 µM yes

====

testedSystem: Human recombinant MMP9 (Homo sapiens)
Sequence (P14780 94-707): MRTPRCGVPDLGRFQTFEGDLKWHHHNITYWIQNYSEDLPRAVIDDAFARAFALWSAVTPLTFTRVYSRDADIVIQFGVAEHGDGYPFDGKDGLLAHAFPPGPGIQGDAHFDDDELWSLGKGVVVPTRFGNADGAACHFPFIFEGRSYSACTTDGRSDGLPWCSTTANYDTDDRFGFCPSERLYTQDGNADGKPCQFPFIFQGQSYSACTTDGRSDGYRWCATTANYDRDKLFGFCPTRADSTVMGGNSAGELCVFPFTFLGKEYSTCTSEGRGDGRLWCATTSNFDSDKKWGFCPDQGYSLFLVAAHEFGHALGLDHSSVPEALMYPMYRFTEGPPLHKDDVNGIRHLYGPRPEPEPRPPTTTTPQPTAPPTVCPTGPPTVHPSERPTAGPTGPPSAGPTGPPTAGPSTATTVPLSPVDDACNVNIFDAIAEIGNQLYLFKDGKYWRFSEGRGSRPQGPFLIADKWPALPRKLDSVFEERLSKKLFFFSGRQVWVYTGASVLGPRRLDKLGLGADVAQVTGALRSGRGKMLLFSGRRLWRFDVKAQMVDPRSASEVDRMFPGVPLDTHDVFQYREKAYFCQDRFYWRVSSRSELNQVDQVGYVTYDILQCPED
testSummary: MMP9 (Gelatinase B) inhibition, 14C gelatin release
assayContext: 37° C., 16 hours; read-out: MMP-9 inhibitory activity, IC50
pIC50: −log10 of the molar value.
Everything with pIC50 lower than 4 is 0.0; everything else, including exactly 4, is 1.0.

CC1c2cccc(O)c2C(=O)C2=C(O)C3(O)C(=O)C(C(N)=O)=C(O)C([N+](C)(C)C)C3C(O)C21.[I-] (stereo not drawn)    1.0
CC1c2c(N(C)C)ccc(O)c2C(=O)C2=C(O)C3(O)C(=O)C(C(N)=O)=C(O)C(N(C)C)C3C(O)C21 (stereo not drawn)    0.0
CC1c2c(N=[N+]=[N-])ccc(O)c2C(=O)C2=C(O)C3(O)C(=O)C(C(N)=O)=C(O)C(N(C)C)C3C(O)C21 (stereo not drawn)    0.0
CC1c2ccc([N+](=O)[O-])c(O)c2C(=O)C2=C(O)C3(O)C(=O)C(C(N)=O)=C(O)C(N(C)C)C3C(O)C21 (stereo not drawn)    1.0
CC(=O)Nc1cc([N+]#N)c(O)c2c1C(C)C1C(=C(O)C3(O)C(=O)C(C(N)=O)=C(O)C(N(C)C)C3C1O)C2=O (stereo not drawn)    0.0

Has CC(=O)Nc1cc([N+](=O)[O-])c(O)c2c1C(C)C1C(=C(O)C3(O)C(=O)C(C(N)=O)=C(O)C(N(C)C)C3C1O)C2=O (stereo not drawn) a recorded pIC50 greater than or equal to 4? 0.0

Given the entry CC1c2ccc([N+]#N)c(O)c2C(=O)C2=C(O)C3(O)C(=O)C(C(N)=O)=C(O)CC3C(O)C21.O=S(=O)([O-])O (stereo not drawn) , answer whether its pIC50 meets or surpasses 4. 0.0

====

Listed here: items and their measured IC50.
testedSystem: Human recombinant MMP1 (Homo sapiens, UniProt P03956)
Sequence (P03956 100-469): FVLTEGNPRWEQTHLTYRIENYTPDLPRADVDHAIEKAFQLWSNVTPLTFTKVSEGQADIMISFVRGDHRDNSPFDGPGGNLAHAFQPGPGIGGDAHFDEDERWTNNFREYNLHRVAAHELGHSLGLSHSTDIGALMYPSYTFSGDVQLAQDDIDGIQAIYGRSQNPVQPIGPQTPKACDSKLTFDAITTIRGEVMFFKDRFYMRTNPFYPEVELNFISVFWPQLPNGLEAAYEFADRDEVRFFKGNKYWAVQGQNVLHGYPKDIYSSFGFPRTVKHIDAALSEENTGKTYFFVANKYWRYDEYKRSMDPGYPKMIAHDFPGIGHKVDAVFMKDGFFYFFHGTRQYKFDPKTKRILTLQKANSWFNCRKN
testSummary: MMP1 (Collagenase-1) inhibition, 14C collagen release
Assay type: biochemical
assayContext: 35° C., 5 hours; read-out: MMP-1 inhibitory activity, IC50
Counter-ions that a name gives are not always drawn.
Report only the number, with the unit µM understood.

CN(C)c1cc([N+]#N)c(O)c2c1CC1CC3C(N(C)C)C(O)=C(C(N)=O)C(=O)C3(O)C(O)=C1C2=O (centres unmarked) [Compound 9, HCL]    372
CC1c2c(N=[N+]=[N-])ccc(O)c2C(=O)C2=C(O)C3(O)C(=O)C(C(N)=O)=C(O)C(N(C)C)C3C(O)C21 (centres unmarked)    429

Record request: IC50 value, item CC1c2c(N)cc(C(C)(C)C)c(O)c2C(=O)C2=C(O)C3(O)C(=O)C(C(N)=O)=C(O)CC3C(O)C21.O=S(=O)(O)O (centres unmarked) 372

====

testedSystem: Human recombinant MMP1 (Homo sapiens)
testSummary: MMP1 (Collagenase-1) inhibition, 14C collagen release
assayContext: 35° C., 5 hours; read-out: MMP-1 inhibitory activity, IC50
measurementName: IC50

Below are worked cases with known answers.
CC(C)Nc1ccc2c(c1O)C(=O)C1=C(O)C3(O)C(=O)C(C(N)=O)=C(O)C(N(C)C)C3C(O)C1C2C (stereo not drawn) [Compound 3]    > 1000 µM
CC(=O)Nc1cc(N)c(O)c2c1C(C)C1C(=C(O)C3(O)C(=O)C(C(N)=O)=C(O)C(N(C)C)C3C1O)C2=O (stereo not drawn) [Compound 26]    > 1000 µM

Next, consider the following molecule.
// IC50 lookup, key: CC(=O)Nc1ccc(O)c2c1C(C)C1C(=C(O)C3(O)C(=O)C(C(N)=O)=C(O)C(N(C)C)C3C1O)C2=O (stereo not drawn) [Compound 23] > 1000 µM
